target: Carbonic anhydrase 5B, mitochondrial (Homo sapiens, UniProt Q9Y2D0)
Sequence (Q9Y2D0 whole entry): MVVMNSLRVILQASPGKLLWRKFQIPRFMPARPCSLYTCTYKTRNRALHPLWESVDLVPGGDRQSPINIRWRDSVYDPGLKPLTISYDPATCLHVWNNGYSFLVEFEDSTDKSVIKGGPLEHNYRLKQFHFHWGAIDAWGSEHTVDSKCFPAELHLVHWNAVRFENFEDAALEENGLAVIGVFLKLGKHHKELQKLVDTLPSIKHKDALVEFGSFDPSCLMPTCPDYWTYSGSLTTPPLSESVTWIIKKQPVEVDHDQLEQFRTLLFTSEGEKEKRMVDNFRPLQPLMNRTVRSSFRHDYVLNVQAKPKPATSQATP

ITEM SMILES	Ki / µM
CC(C)C[C@H](NC(=O)[C@H](Cc1ccccc1)NC(=O)c1cnccn1)B(O)O	6.83

----------
Ki values recorded for UniProtKB Q16790

ITEM SMILES	Ki
OB(O)c1ccccc1	> 50 µM
OB1OCc2ccccc21	> 50 µM

----------
pKi: −log10 of the molar value.
Each entry below carries its measured pKi, system: Carbonic anhydrase 6 (Homo sapiens).
Sequence (P23280 whole entry): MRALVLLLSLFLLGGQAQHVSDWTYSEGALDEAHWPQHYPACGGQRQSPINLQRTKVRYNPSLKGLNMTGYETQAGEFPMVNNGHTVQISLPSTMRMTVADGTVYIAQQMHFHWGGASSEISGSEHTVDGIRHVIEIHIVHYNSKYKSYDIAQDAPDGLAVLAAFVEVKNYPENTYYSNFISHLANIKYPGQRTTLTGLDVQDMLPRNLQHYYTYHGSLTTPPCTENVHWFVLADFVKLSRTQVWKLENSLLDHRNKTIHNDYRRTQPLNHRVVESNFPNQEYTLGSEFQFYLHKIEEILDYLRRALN

MOLECULE	MEASUREMENT QUALIFIER	pKi
OB(O)c1ccccc1 [PHENYLBORONIC ACID]	<	4.30
CC(C)C[C@H](NC(=O)[C@H](Cc1ccccc1)NC(=O)c1cnccn1)B(O)O [BORTEZOMIB]	=	5.36

----------
target: UniProtKB P43166
Sequence (P43166 whole entry): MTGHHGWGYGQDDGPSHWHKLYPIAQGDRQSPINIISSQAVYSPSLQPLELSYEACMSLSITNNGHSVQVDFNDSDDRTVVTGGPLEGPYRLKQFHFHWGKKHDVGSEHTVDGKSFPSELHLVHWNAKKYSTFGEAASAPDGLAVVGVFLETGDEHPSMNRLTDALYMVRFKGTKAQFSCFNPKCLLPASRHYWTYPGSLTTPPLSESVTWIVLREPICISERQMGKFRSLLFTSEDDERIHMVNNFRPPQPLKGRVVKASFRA
pKi: −log10 of the molar value.

MOLECULE	pKi
CC(C)C[C@H](NC(=O)[C@H](Cc1ccccc1)NC(=O)c1cnccn1)B(O)O [BORTEZOMIB]	5.16

----------
target: Carbonic anhydrase 2 (Homo sapiens)
pKi: −log10 of the molar value.

ITEM SMILES	TGT	pKi
OB1OCc2ccccc21	Carbonic anhydrase 2 (Homo sapiens)	5.09
